Test: solvent given as SMILES
Conditions: in ClCCl
# absorption maximum per entry
Numbers only here, please. The scale is nm.

Use these answered entries as a reference point.
sample-smiles | value-measured
CCN(CC)c1ccc2c(-c3ccccc3C(=O)O)c3c([o+]c2c1)/C(=C/c1ccc2c(c1)c1ccccc1n2CC)CCC3 | 646
Cc1ccc2cc3c(=O)n(C)c(=O)n(C)c3nc2c1 | 355
C(=C\c1nc(/C=C/c2ccc(-n3c4ccccc4c4ccccc43)cc2)nc(/C=C/c2ccc(-n3c4ccccc4c4ccccc43)cc2)n1)/c1ccc(-n2c3ccccc3c3ccccc32)cc1 | 383
CCN(CC)c1ccc(-c2nc3c(c4c2-c2ccccc2CC4)-c2ccccc2CC3)cc1 | 357

Req: Please indicate absorption maximum recorded for `N#C/C(=C\c1ccc(/C=C/c2ccc(N(c3ccccc3)c3ccccc3)cc2)s1)C(=O)O`
Resp: 490

Req: Please indicate absorption maximum recorded for `CC1(C)CC(/C=C/c2ccc(N3CCOCCOCCOCCOCC3)cc2)=CC(=C(C#N)C#N)C1`
Resp: 502

Req: Please indicate absorption maximum recorded for `CC[N+](CC)=c1ccc2c(-c3ccccc3C(=O)O)c3oc4cc(N)ccc4c3oc-2c1`
Resp: 581

Req: Please indicate absorption maximum recorded for `Cc1ccccc1N1c2sc3ccccc3c2Sc2sc3ccccc3c21`
Resp: 325

Req: Please indicate absorption maximum recorded for `CCCCc1ccc2ccc3cccc4ccc1c2c34`
Resp: 341
